Values were extracted from paper PMC11130662.

tested on: E. granulosus protoscoleces; assay: Protoscolicidal; format: cell-based; conditions: Echinococcus granulosus, read-out: viability of protoscoleces
Consider the following compounds; for each one, report its viability at 75 µg/mL.
Numbers only, in %.

compound | testReadout | reported
Cc1ccc(NC(=O)c2cc([N+](=O)[O-])cc([N+](=O)[O-])c2)cc1 [Compound 6, 3,5-dinitro-N-p-tolylbenzamide] | viability at 75 µg/mL | 53.6

# per-item lookup of viability at 75 µg/mL; items listed below
1. Cc1ccc(NC(=O)c2cccc3ccccc23)cc1 [Compound 10, N-p-tolyl-1-naphthamide]
2. Cc1ccc(NC(=O)c2ccc(OC(F)(F)F)cc2)cc1 [Compound 16, N-p-tolyl-4-(trifluoromethoxy)benzamide]
3. Cc1ccc(NC(=O)c2c(F)c(F)c(F)c(F)c2F)cc1 [Compound 20, 2,3,4,5,6-pentafluoro-N-p-tolylbenzamide]
4. CCCCCc1ccc(C(=O)Nc2ccc(C)cc2)cc1 [Compound 18, 4-pentyl-N-p-tolylbenzamide]

1. 10.3
2. 45.3
3. 18.3
4. 38.3
